# Tested on: MS2 coat protein
# procedureSummary: apparent KD of MS2 coat protein, switch OFF state (with FMN for OFF switches, without FMN for ON switches); designed switch direction (-1 OFF switch, 1 ON switch): 1; higher = weaker reporter binding
# runConditions: FMN input: 0 or 200 uM; Eterna round: R93 (includes R88 designs)
In this section, each of the sequences is paired with its reported apparent KD of MS2 coat protein.

[
  {
    "seqText": "AAGAAAGAAACGCAGGAUAUGCAAAACAAAACAUGAGGAUCACCCAUGUCUUACUUACAAACAAAGCAGAAGGGCGAAAGAAAGAA [Same State 2 B]",
    "unitOfMeasure": "nM",
    "apparent KD of MS2 coat protein": 20
  },
  {
    "seqText": "AUGGUGCAGGUACAGGAUAUGUUGCUCGUAACAUGAGGAUCACCCAUGUACCUAUGAGAUUAAAUGCAGAAGGGUGCACACCACG [Quorra]",
    "unitOfMeasure": "nM",
    "apparent KD of MS2 coat protein": 1480
  },
  {
    "seqText": "AGGAGACAUGAGGAUCACCCAUGUGAGAAGAGGCGAGGAUAUCGAAAGAAAGAAGAGAAACGAGAAGGCGCGAGAU [salish99-SS1-021]",
    "unitOfMeasure": "nM",
    "apparent KD of MS2 coat protein": 38.7
  }
]
